# experimental.target: Estrogen receptor (Homo sapiens) (UniProt P03372)
# Sequence (P03372 whole entry, looked up): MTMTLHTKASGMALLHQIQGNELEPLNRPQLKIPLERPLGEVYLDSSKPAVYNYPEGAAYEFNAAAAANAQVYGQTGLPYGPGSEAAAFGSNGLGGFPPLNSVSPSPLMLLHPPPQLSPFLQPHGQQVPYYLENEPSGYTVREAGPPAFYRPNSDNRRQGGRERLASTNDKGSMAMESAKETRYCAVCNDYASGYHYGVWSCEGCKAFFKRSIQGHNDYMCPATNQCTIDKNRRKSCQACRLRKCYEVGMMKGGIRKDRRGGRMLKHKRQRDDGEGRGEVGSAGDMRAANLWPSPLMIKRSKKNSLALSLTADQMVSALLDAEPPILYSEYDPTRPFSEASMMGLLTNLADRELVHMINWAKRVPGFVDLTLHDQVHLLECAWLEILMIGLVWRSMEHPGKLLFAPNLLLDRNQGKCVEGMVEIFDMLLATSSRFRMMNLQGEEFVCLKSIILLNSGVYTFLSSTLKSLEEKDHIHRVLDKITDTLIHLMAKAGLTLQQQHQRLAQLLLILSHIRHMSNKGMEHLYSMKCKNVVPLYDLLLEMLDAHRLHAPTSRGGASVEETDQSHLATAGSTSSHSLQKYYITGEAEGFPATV
# method: OT_ERa_GFPERaERE_0120: Odyssey Thera (OT) 2-hour HeLa Transcription Induction Assay for Estrogen Receptor (AID 2283382)
Active and inactive are the calls of the source. How the source made its calls: active means hit-call score of the fitted dose curve at least 0.9, where 1 is the maximum; inconclusive means response in the unintended direction; inactive means score below 0.9.
Respond only with the outcome that fits, drawn from active, inactive

Q: What was the test verdict on Cc1ccc(N/N=c2\c(=O)cc/c(=N/Nc3ccc(S(=O)(=O)O)cc3)c2=O)c(C)c1 ?
Ans: inactive

Q: Outcome logged for CC(=O)[C@H]1[C@H](C#N)C[C@H]2[C@@H]3CC=C4C[C@@H](O)CC[C@]4(C)[C@H]3CC[C@@]21C in this assay:
Ans: inactive

Q: Which result was noted for this compound in the test: CC1=CC[C@H]2C[C@@H]1C2(C)C
Ans: active

Q: How did this test come out for CC(C)=CCC[C@H](C)CCO ?
Ans: inactive

Q: So what was the verdict on C=C[Si](C)(C)O[Si](C)(C)C=C in this test?
Ans: inactive

Q: Given NC(CO)(CO)CO , state the outcome it received in this test.
Ans: inactive

Q: Any idea what this test logged for CCCCC(CC)CCC(CC(C)C)OS(=O)(=O)O (stereo not drawn) ?
Ans: inactive

Q: Could you please tell me the result logged for CCCCCCCCCCOS(=O)(=O)O in this assay?
Ans: inactive

Q: Per the records of this test, what outcome belongs to CCCCC/C=C\C/C=C\CCCCCCCC(=O)OC ?
Ans: inactive

Q: In this assay, the call recorded for C1CN(SSN2CCOCC2)CCO1 was what?
Ans: inactive

Q: Called result for Oc1ccc(Cl)cc1Cc1cc(Cl)ccc1O
Ans: inactive

Q: So what was the verdict on CC(C)(C)c1ccc(-c2ccc(C(C)(C)C)cc2)cc1 in this test?
Ans: inactive

Q: Given CC(C)C1=CC2=CC[C@@H]3[C@](C)(CCC[C@@]3(C)C(=O)O)[C@H]2CC1 , state the outcome it received in this test.
Ans: inactive

Q: What call does the record list for CC(CC=O)CCCC(C)(C)O (stereo not drawn) ?
Ans: inactive

Q: Hello, I am checking results. What call was entered for CC(C)(C)c1ccc(N)cc1 ?
Ans: inactive

Q: What outcome does the record of this test show for CC(C)c1ccc2c(C(C)C)cc(C(C)C)c(S(=O)(=O)O)c2c1 ?
Ans: inactive

Q: What is the recorded call for this compound in the test? O=C1CCCC1
Ans: inactive

Q: Name the outcome recorded for O=S1(=O)OC(c2ccc(O)cc2)(c2ccc(O)cc2)c2ccccc21 in the assay.
Ans: inactive

Q: Given CCCCCc1ccc(Cl)cc1 , state the outcome it received in this test.
Ans: inactive

Q: For this compound, state the assay outcome: CN(C)c1ccc(N=Nc2ccccc2C(=O)O)cc1
Ans: inactive

Q: Per the assay record, what outcome was assigned to CCCCCCC1(C)CCC(=O)O1 (stereo not drawn) ?
Ans: inactive

Q: Hi, sorry to bother you, what did the test record for CCO[Si](C)(OCC)OCC ?
Ans: inactive

Q: In this assay, the call recorded for CC1=NN(c2cc(S(=O)(=O)O)ccc2Cl)C(=O)C1N=Nc1ccccc1 (stereo not drawn) was what?
Ans: inactive

Q: Hi, do you know how Cc1cc(C)c(C(=O)O)c(C)c1 came out in this test?
Ans: active

Q: # lookup: test call for CC/C=C\C/C=C\C/C=C\CCCCCCCC(=O)O
Ans: inactive

Q: Which outcome did this test record for the compound CCCc1ccc(OC)cc1 ?
Ans: inactive

Q: Lab log entry: CCCCCCCCCCCCCOP(=O)(O)O — outcome as called in the assay?
Ans: inactive

Q: I'd appreciate the recorded outcome for CCCCOCCOC(=O)COc1nc(Cl)c(Cl)cc1Cl from this test.
Ans: inactive

FYI, the data here is from PubChem BioAssay (EPA / NIEHS).
